Tested on: OVCAR-3
protocol details: NCI tumour cell line growth inhibition, 48 h
Activity calls are given as the source filed them. No stated cut-off is given here; in the data, active = GI50 up to about 1.1 µM and inactive = higher.

| compound | GI50 |
| --- | --- |
| CCn1c(-c2ccc(OC)cc2)nc2c1C(=O)c1ccccc1C2=O | > 100 µM (inactive) |
| O=C(O)CSc1nnc(-c2ccccc2O)[nH]1 | > 100 µM (inactive) |
| O=[N+]([O-])c1cc(/C=N/NS(=O)(=O)c2ccc(F)cc2)c(O)c([N+](=O)[O-])c1 | 29 µM (inactive) |
| Nc1nc(Cl)cc(NCC2(CO)CC=CC2)n1 | 80.2 µM (inactive) |
| COC(=O)C1=CON2C3CC4CC(C3)CC(C4)C12C (centres undefined) | > 100 µM (inactive) |
| CCCCCCCCCCCCCCCC(=O)NC1CCc2cc(O)c(O)c(O)c2-c2ccc(SC)c(=O)cc21 (centres undefined) | 5.28 µM (inactive) |
| O=C(N/N=C(COc1ccccc1)\N=C\c1cccnc1)c1ccncc1 | > 100 µM (inactive) |
| CC(=O)OC(C)C1C2=C(C(=O)CC1(C)O)C(=O)c1c(ccc(-c3ccc4c(c3O)C(=O)C3=C(C4=O)C(C(C)OC(C)=O)C(C)(O)CC3=O)c1O)C2=O (centres undefined) | 2.2 µM (inactive) |
| CCC12C=CCN(CCc3c([nH]c4ccccc34)/C=C\1)C2 (centres undefined) | > 100 µM (inactive) |

###

Recorded GI50 by entry
System: SNB-19
protocol details: NCI tumour cell line growth inhibition, 48 h
Calls of active or inactive are those of the source. No stated cut-off is given here; in the data, active = GI50 up to about 1.1 µM and inactive = higher.
metric: GI50

| molecule | observed |
| --- | --- |
| CCCCCNC(=O)C1C(=O)N(CCCCC)C(=O)/C1=N\N (stereo not given) | 35.2 µM (inactive) |
| COc1ccc(NC(=O)CC(=O)N/N=C(\C)c2cc3ccccc3oc2=O)cc1 | > 100 µM (inactive) |
| COC1(c2ccccc2)N=C(S)NN=C1c1ccccc1 (stereo not given) | 54.2 µM (inactive) |
| CC(C)(C)[Si](C)(C)OCc1cccc(OCCOc2cccc(CO[Si](C)(C)C(C)(C)C)c2[N+](=O)[O-])c1[N+](=O)[O-] | > 100 µM (inactive) |
| CCOC(=O)C(NCc1cccc(C(F)(F)F)c1)(NC(=O)c1ccccc1)C(F)(F)F (stereo not given) | 71.9 µM (inactive) |
| COP(=O)(OC)[C@@](O)(c1ccccc1)[C@@H](O)[C@H](O)c1ccccc1 | > 100 µM (inactive) |
| CCN(CC)C(=S)SS(=O)(=O)c1ccc(F)cc1 | > 100 µM (inactive) |
| CC1(C)CCc2c(ccc(C(=O)/C=C/c3ccc(O)cc3)c2O)O1 [DORSMANNIN A] | 13.9 µM (inactive) |
| CC(C)O/C=C1\C(=O)C2(SCCS2)[C@H]2CCCC[C@@H]12 | 39.5 µM (inactive) |
| c1ccc(-c2cn3nc(N4CCOCC4)sc3n2)cc1 | > 100 µM (inactive) |

###

Recorded GI50 by entry
Test system: EKVX
protocol details: NCI tumour cell line growth inhibition, 48 h
Calls of active or inactive are those of the source. Rule as the data show it: active = GI50 up to about 1.1 µM and inactive = higher.
metric: GI50

| compound | observed |
| --- | --- |
| N#CC1(CCCI)CCCC1 | 47.4 µM (inactive) |
| CC(=O)Nc1ccc2cc3[nH]c4cc(NC(C)=O)ccc4c3nc2c1 | > 100 µM (inactive) |
| CC(OP(=O)(O)O)C(N)C(=O)O (stereo not drawn) | > 100 µM (inactive) |
| Cc1cn(Cc2cnnn2CC2OC(n3cc(C)c(=O)[nH]c3=O)CC2O)c(=O)[nH]c1=O (stereo not drawn) | > 100 µM (inactive) |
| CN(C)/N=N/c1cccc(C(N)=O)c1 | > 100 µM (inactive) |
| Cc1nc2ccc(C(F)(F)F)cc2nc1NCc1ccc(Cl)c(Cl)c1 | 14.1 µM (inactive) |
| CN(C)CCNC(=O)Cn1cnc2cccc([N+](=O)[O-])c2c1=O | > 100 µM (inactive) |
| O=C(/C=C/c1ccc(O)c(O)c1)NC(COC(=O)/C=C/c1ccc(O)c(O)c1)C(=O)O (stereo not drawn) | > 100 µM (inactive) |
| Cc1c2ccncc2cc2c1[nH]c1ccccc12 | 4.4 µM (inactive) |
| CCOC(=O)CSc1c(C(=O)OCC)c(=O)n(-c2ccccc2)c(=S)n1-c1ccccc1 | 62.8 µM (inactive) |
| COc1ccc2c(Cl)cc(NC(=S)Nc3ccccc3)nc2c1 | 22 µM (inactive) |
| CC1(C)CCCCCC(C)(CCCCCCCCCCCO)C1=O (stereo not drawn) | 17.6 µM (inactive) |
| Cc1cc(-c2nc3ccc(F)cc3s2)ccc1N | 56.5 µM (inactive) |
| c1ccc(-c2cn3nc(N4CCOCC4)sc3n2)cc1 | > 100 µM (inactive) |
| C=C1C(=O)O[C@H]2C1C[C@@H](O)[C@@]1(C)OC1CC[C@@]1(C)O[C@H]21 (stereo partly drawn) | 15.8 µM (inactive) |
| CC(C)OC(=O)[C@@H]1OC(C)(C)O[C@H]1C(=O)OC(C)C | > 100 µM (inactive) |
| CCOC(=O)C(NCc1cccc(C(F)(F)F)c1)(NC(=O)c1ccccc1)C(F)(F)F (stereo not drawn) | 24.2 µM (inactive) |
| O[C@H]1[C@H](O)[C@@H](O)[C@@]2(O)CC[C@@H]1N2 | > 100 µM (inactive) |
| OC(CC(O)(C(F)(F)F)C(F)(F)F)C(O)c1ccco1 (stereo not drawn) | > 10 µM (inactive) |
| O=C(/C=C/c1ccc(O)c(O)c1)c1cc(O)cc(O)c1 | 20.6 µM (inactive) |
| O=C1CCCc2c1c1c(n2Cc2ccccc2)-c2ccccc2C1=O | 27.7 µM (inactive) |
| COc1ccc(NCC(=O)Nn2c(-c3ccccc3)nc3ccccc3c2=O)cc1 | 69.2 µM (inactive) |
| COc1ccc(CCCC(=O)O)c(C)c1 | > 100 µM (inactive) |

###

Tested on: UACC-62
protocol details: NCI tumour cell line growth inhibition, 48 h
Calls of active or inactive are those of the source. No stated cut-off is given here; in the data, active = GI50 up to about 1.1 µM and inactive = higher.
Classes used: label 1 for active, label 0 for inactive

| compound | class label |
| --- | --- |
| COCCOCCOC1=CC(=O)c2c(O)ccc(O)c2C1=O | label 0 |
| COc1cc2cc(C(=O)N3CC(CCl)c4c3cc(O)c3ccccc43)[nH]c2c(OC)c1OC (stereo not given) | label 1 |
| O=c1[nH]c(=O)n(C2CC(O)C(CO)O2)cc1OS(=O)(=O)C(F)(F)F (stereo not given) | label 0 |
| N#CCC(=O)N/N=C(/C(=O)Nc1ccccc1)C1C(=O)N(c2ccccc2)N=C1N (stereo not given) | label 0 |
| CCN1c2ccccc2C(C(SC)S(=O)(=O)c2ccc(C)cc2)c2c1[nH]c(=O)n(C)c2=O (stereo not given) | label 0 |
| CCOC(=O)c1s/c(=N\Nc2nc3ccccc3cc2C2OCCO2)n(Cc2ccccc2)c1C | label 0 |
| COC(=O)C1=CON2C3CC4CC(C3)CC(C4)C12C (stereo not given) | label 0 |
| COc1ccc(NC(=O)CC/C(CC(=O)c2ccccc2Cl)=N\Nc2nnc(C)n2N)cc1 | label 0 |
| O=C(NNC(=S)Nc1ccccc1)c1csc(NC(=S)NC2CCCCC2)n1 | label 0 |
| CC(OP(=O)(O)O)C(N)C(=O)O (stereo not given) | label 0 |

###

Tested on: OVCAR-8
protocol details: NCI tumour cell line growth inhibition, 48 h
Calls of active or inactive are those of the source. Rule as the data show it: active = GI50 up to about 1.1 µM and inactive = higher.
Possible outcomes: T = active, F = inactive

| compound | system | class label |
| --- | --- | --- |
| COc1ccc2c(Cl)cc(NC(=S)Nc3ccccc3)nc2c1 | OVCAR-8 | F |
| CC(=O)OC1C(C)OC(OC2C[C@](O)(C(C)=O)Cc3c(O)c4c(c(O)c32)C(=O)c2ccccc2C4=O)C(F)C1OC(C)=O (stereo not given in full) | OVCAR-8 | T |
| Cc1ccc(-c2cc(-c3ccc(Cl)cc3)nc(/N=C3\C(=O)N(CN(C)C)c4ccccc43)n2)cc1 | OVCAR-8 | F |
| O=C1CCCc2c1c1c(n2Cc2ccccc2)-c2ccccc2C1=O | OVCAR-8 | F |
| O=C(CN1C(=O)c2ccccc2C1=O)OC1C=CCCC1 (stereo not given) | OVCAR-8 | F |
| O=C1NC(=O)C(C(=O)C(=O)Nc2cccc(C(F)(F)F)c2)C(=O)N1 | OVCAR-8 | F |
| O=[N+]([O-])c1cc(/C=N/NS(=O)(=O)c2ccc(F)cc2)c(O)c([N+](=O)[O-])c1 | OVCAR-8 | F |
| O=CC(O)C(O)C(O)C1CNC(=S)O1 (stereo not given) | OVCAR-8 | F |
| CN1C(=O)C(O)CC1c1cccc(C(F)(F)F)c1 (stereo not given) | OVCAR-8 | F |
| COc1ccc(NC(=O)CC/C(CC(=O)c2ccccc2Cl)=N\Nc2nnc(C)n2N)cc1 | OVCAR-8 | F |
